testProtocol: Ratio of drug level in lymph node iliac to plasma in Beagle dog at 5 mg/kg, sc after 1 month
Assay type: ADME, organism-based, Canis lupus familiaris
Parameters: dose 5 mg/kg, route subcutaneous
quantityName: Kp at 730.5 h
The reply should be a number, written without any unit.

Problem: For the compound Cc1cc(/C=C/C#N)cc(C)c1Nc1ccnc(Nc2ccc(C#N)cc2)n1 , what Kp at 730.5 h is on record?
Result: 3.9

* * *

testProtocol: Plasma concentration in Beagle dog at 5 mg/kg, sc after 6 months
Assay type: ADME, organism-based, Canis lupus familiaris
Set-up: dose 5 mg/kg, route subcutaneous
quantityName: concentration at 4383 h (ng/mL)
// units = ng/mL; emit number, no label

Problem: Entry Cc1cc(/C=C/C#N)cc(C)c1Nc1ccnc(Nc2ccc(C#N)cc2)n1 has what concentration at 4383 h?
Result: 1.3

* * *

testProtocol: Plasma concentration in male Beagle dog at 200 mg/kg administered intramuscularly after 1 month
Assay type: ADME, organism-based, Canis lupus familiaris
Set-up: dose 200 mg/kg, route intramuscular
measurementContext: im
quantityName: concentration at 730.5 h (ng/mL)
Answer format: numeric, ng/mL implied, no suffix.

Problem: Quick check: concentration at 730.5 h of Cc1cc(/C=C/C#N)cc(C)c1Nc1ccnc(Nc2ccc(C#N)cc2)n1 ?
Result: 74.5

* * *

testProtocol: Ratio of drug level in lymph node popliteal to plasma in Beagle dog at 5 mg/kg, sc after 6 months
Type: ADME, organism-based, Canis lupus familiaris
Parameters: dose 5 mg/kg, route subcutaneous
quantityName: Kp at 4383 h
Kindly provide the number alone.

Problem: Dear colleague, I am looking for the recorded Kp at 4383 h of the following molecule: Cc1cc(/C=C/C#N)cc(C)c1Nc1ccnc(Nc2ccc(C#N)cc2)n1
Result: 4.3

* * *

testProtocol: Drug level in Beagle dog lymph node iliac at 5 mg/kg administered intramuscularly after 3 months
Type: ADME, organism-based, Canis lupus familiaris
Set-up: dose 5 mg/kg, route intramuscular
measurementContext: im, read-out: Drug uptake
quantityName: concentration at 2191.5 h (ng/g)
Quick note: give the figure in ng/g, leave out the unit.

Problem: What does the record list as concentration at 2191.5 h for Cc1cc(/C=C/C#N)cc(C)c1Nc1ccnc(Nc2ccc(C#N)cc2)n1 [RILPIVIRINE] ?
Result: 15.3

* * *

testProtocol: Ratio of drug level in thymus to plasma in male Beagle dog at 400 mg/kg administered intramuscularly after 1 month
Format: ADME, organism-based, Canis lupus familiaris
Set-up: dose 400 mg/kg, route intramuscular
measurementContext: im
quantityName: Kp at 730.5 h
Format: numeric value only, no unit, no commentary.

Problem: Give the measured Kp at 730.5 h of Cc1cc(/C=C/C#N)cc(C)c1Nc1ccnc(Nc2ccc(C#N)cc2)n1 .
Result: 4

* * *

testProtocol: Drug level in female Beagle dog thymus at 200 mg/kg, sc after 1 month
Format: ADME, organism-based, Canis lupus familiaris
Design: dose 200 mg/kg, route subcutaneous
measurementContext: read-out: Drug uptake
quantityName: concentration at 730.5 h

Problem: Which concentration at 730.5 h value is on record for Cc1cc(/C=C/C#N)cc(C)c1Nc1ccnc(Nc2ccc(C#N)cc2)n1 ?
Result: 536 ng/g

* * *

testProtocol: Drug level in female Beagle dog thymus at 200 mg/kg administered intramuscularly after 1 month
Type: ADME, organism-based, Canis lupus familiaris
Set-up: dose 200 mg/kg, route intramuscular
measurementContext: im, read-out: Drug uptake
quantityName: concentration at 730.5 h (ng/g)
Field: numeric (ng/g). Do not append units.

Problem: Reported concentration at 730.5 h, molecule Cc1cc(/C=C/C#N)cc(C)c1Nc1ccnc(Nc2ccc(C#N)cc2)n1 : ____
Result: 353

* * *

testProtocol: Drug level in female Beagle dog spleen at 200 mg/kg administered intramuscularly after 3 months
Type: ADME, organism-based, Canis lupus familiaris
Parameters: dose 200 mg/kg, route intramuscular
measurementContext: im, read-out: Drug uptake
quantityName: concentration at 2191.5 h (ng/g)
Give the quantity in ng/g, number only.

Problem: Item Cc1cc(/C=C/C#N)cc(C)c1Nc1ccnc(Nc2ccc(C#N)cc2)n1 has what recorded concentration at 2191.5 h?
Result: 22.1

* * *

testProtocol: Plasma concentration in Beagle dog at 5 mg/kg, sc after 6 months
Type: ADME, organism-based, Canis lupus familiaris
Set-up: dose 5 mg/kg, route subcutaneous
quantityName: concentration at 4383 h (ng/mL)
Numeric answer only, unit ng/mL assumed.

Problem: Need concentration at 4383 h, item Cc1cc(/C=C/C#N)cc(C)c1Nc1ccnc(Nc2ccc(C#N)cc2)n1 [RILPIVIRINE]
Result: 1.3

* * *

testProtocol: Drug level in male Beagle dog spleen at 400 mg/kg, sc after 3 months
Type: ADME, organism-based, Canis lupus familiaris
Design: dose 400 mg/kg, route subcutaneous
measurementContext: read-out: Drug uptake
quantityName: concentration at 2191.5 h (ng/g)
Dear colleague, please return just the value in ng/g, with no unit written.

Problem: Give the measured concentration at 2191.5 h of Cc1cc(/C=C/C#N)cc(C)c1Nc1ccnc(Nc2ccc(C#N)cc2)n1 .
Result: 11.3

* * *

testProtocol: Drug level in male Beagle dog spleen at 400 mg/kg, sc after 1 month
Assay type: ADME, organism-based, Canis lupus familiaris
Design: dose 400 mg/kg, route subcutaneous
measurementContext: read-out: Drug uptake
quantityName: concentration at 730.5 h (ng/g)
A number alone suffices; assume ng/g.

Problem: Fill in the blank: the reported concentration at 730.5 h of Cc1cc(/C=C/C#N)cc(C)c1Nc1ccnc(Nc2ccc(C#N)cc2)n1 is ____.
Result: 569

* * *

testProtocol: Plasma concentration in Beagle dog at 5 mg/kg administered intramuscularly after 6 months
Format: ADME, organism-based, Canis lupus familiaris
Set-up: dose 5 mg/kg, route intramuscular
measurementContext: im
quantityName: concentration at 4383 h

Problem: What value of concentration at 4383 h has been recorded for this entry: Cc1cc(/C=C/C#N)cc(C)c1Nc1ccnc(Nc2ccc(C#N)cc2)n1 [RILPIVIRINE]
Result: < 1 ng/mL

* * *

testProtocol: AUC (0 to last) in male dog at 200 mg administered intramuscularly after 85 days
measurementContext: plasma, im
quantityName: AUC(0-t) at 2040 h (µg·h/mL)
# number only, unit µg·h/mL dropped from output

Problem: Given the entry Cc1cc(/C=C/C#N)cc(C)c1Nc1ccnc(Nc2ccc(C#N)cc2)n1 [RILPIVIRINE] , report its measured AUC(0-t) at 2040 h.
Result: 148

* * *

testProtocol: Drug level in Beagle dog spleen at 5 mg/kg, sc after 3 months
Assay type: ADME, organism-based, Canis lupus familiaris
Set-up: dose 5 mg/kg, route subcutaneous
measurementContext: read-out: Drug uptake
quantityName: concentration at 2191.5 h (ng/g)
I only need the number, in ng/g, no unit after it.

Problem: May I ask what concentration at 2191.5 h has been recorded for Cc1cc(/C=C/C#N)cc(C)c1Nc1ccnc(Nc2ccc(C#N)cc2)n1 ?
Result: 9.7

* * *

testProtocol: Drug level in Beagle dog spleen at 5 mg/kg, sc after 6 months
Format: ADME, organism-based, Canis lupus familiaris
Parameters: dose 5 mg/kg, route subcutaneous
measurementContext: read-out: Drug uptake
quantityName: concentration at 4383 h (ng/g)
Report the value in ng/g with no unit label.

Problem: Using the record for Cc1cc(/C=C/C#N)cc(C)c1Nc1ccnc(Nc2ccc(C#N)cc2)n1 [RILPIVIRINE] , report its concentration at 4383 h.
Result: 7.1

* * *

testProtocol: Ratio of drug level in spleen to plasma in female Beagle dog at 200 mg/kg, sc after 3 months
Assay type: ADME, organism-based, Canis lupus familiaris
Set-up: dose 200 mg/kg, route subcutaneous
quantityName: Kp at 2191.5 h
Answer field: number only, no words.

Problem: # get_value(readout='Kp at 2191.5 h', item= Cc1cc(/C=C/C#N)cc(C)c1Nc1ccnc(Nc2ccc(C#N)cc2)n1 )
Result: 1.9

* * *

testProtocol: Drug level in Beagle dog lymph node iliac at 5 mg/kg administered intramuscularly after 6 months
Type: ADME, organism-based, Canis lupus familiaris
Parameters: dose 5 mg/kg, route intramuscular
measurementContext: im, read-out: Drug uptake
quantityName: concentration at 4383 h (ng/g)
Write the answer as a number in ng/g, unit excluded.

Problem: Which concentration at 4383 h is reported for this molecule? Cc1cc(/C=C/C#N)cc(C)c1Nc1ccnc(Nc2ccc(C#N)cc2)n1
Result: 10.7

* * *

testProtocol: Drug level in male Beagle dog thymus at 200 mg/kg, sc after 1 month
Assay type: ADME, organism-based, Canis lupus familiaris
Design: dose 200 mg/kg, route subcutaneous
measurementContext: read-out: Drug uptake
quantityName: concentration at 730.5 h (ng/g)
// note: answer is a bare numeric in ng/g

Problem: Quick one: concentration at 730.5 h of Cc1cc(/C=C/C#N)cc(C)c1Nc1ccnc(Nc2ccc(C#N)cc2)n1 ?
Result: 576
